# RUN DESCRIPTION: inhibitors of E-selectin induction by TNFa, primary screen, imaging, HUVEC, immunofluorescence, MLSMR starter and 10KST1 sets (AID 487);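 note: signal is fraction of cell area covered by stained E-selectin grains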
# CONDITION SET: HUVEC TNFalpha-induced E-selectin immunofluorescence imaging, at 2 µM; hits give high values
MEASURED QUANTITY: inhibition (%)

- COMPOUND: "COCCCNC(=O)c1c(N)n(/N=C/c2ccccn2)c2nc3ccccc3nc12"
  UNIT OF MEASUREMENT: "%"
  VALUE REPORTED: 5.4
- COMPOUND: "CCN(CC)Cc1c(O)ccc2c(C)c(CC(=O)OC)c(=O)oc12"
  UNIT OF MEASUREMENT: "%"
  VALUE REPORTED: 1.9
- COMPOUND: "O=C(NCCC1=CCCCC1)C1CCN(C(=O)Nc2ccccc2)CC1"
  UNIT OF MEASUREMENT: "%"
  VALUE REPORTED: 5.2
- COMPOUND: "O=C(CCC(=O)c1cccs1)NCc1ccccc1"
  UNIT OF MEASUREMENT: "%"
  VALUE REPORTED: -24.2
- COMPOUND: "CCCCCCOc1ccc(N2C(=O)CC(N3CCN(C(=O)c4ccco4)CC3)C2=O)cc1 (stereo not drawn)"
  UNIT OF MEASUREMENT: "%"
  VALUE REPORTED: -105
- COMPOUND: "O=C(CSc1nccn1-c1cccc(Cl)c1)NC1CCCC1"
  UNIT OF MEASUREMENT: "%"
  VALUE REPORTED: 39.3
- COMPOUND: "CC(O)(C#CCN1CCOCC1)c1ccccc1 (stereo not drawn)"
  UNIT OF MEASUREMENT: "%"
  VALUE REPORTED: -34.4
- COMPOUND: "O=C(CCS(=O)(=O)c1cccc2nsnc12)N1CCN(Cc2ccc3c(c2)OCO3)CC1"
  UNIT OF MEASUREMENT: "%"
  VALUE REPORTED: -84.7
- COMPOUND: "O=c1c(-c2ccc(Br)cc2)coc2c(CN3CCOCC3)c(O)ccc12"
  UNIT OF MEASUREMENT: "%"
  VALUE REPORTED: -9.2
- COMPOUND: "Cc1cc(C(=O)NCc2ccc(S(N)(=O)=O)cc2)cs1"
  UNIT OF MEASUREMENT: "%"
  VALUE REPORTED: 9.5
- COMPOUND: "COC(=O)c1sc2ccccc2c1NC(=O)c1cccs1"
  UNIT OF MEASUREMENT: "%"
  VALUE REPORTED: 1.4
- COMPOUND: "COc1ccccc1C(=O)NCC(=O)n1nc(C)cc1C"
  UNIT OF MEASUREMENT: "%"
  VALUE REPORTED: -24
- COMPOUND: "CC(C)OC(=O)c1c2nc3ccccc3nc2n2c1[nH]c(=O)c1ccccc12"
  UNIT OF MEASUREMENT: "%"
  VALUE REPORTED: -30.4
- COMPOUND: "CCOC(=O)c1c(NC(=O)CN2CCOCC2)sc2c1CC(C)(C)OC2"
  UNIT OF MEASUREMENT: "%"
  VALUE REPORTED: -92.8
- COMPOUND: "C(=N\\n1cnnc1)/c1ccccn1"
  UNIT OF MEASUREMENT: "%"
  VALUE REPORTED: -109
- COMPOUND: "Cc1cc(C)c(NC(=O)CSc2nnc(-c3ccncc3)n2Cc2ccco2)c(C)c1"
  UNIT OF MEASUREMENT: "%"
  VALUE REPORTED: -107
- COMPOUND: "CC1(CC(=O)O)C(=O)N=C2C=CC=CN21 (stereo not drawn)"
  UNIT OF MEASUREMENT: "%"
  VALUE REPORTED: 12.8
- COMPOUND: "CN(C)c1ccc(CNn2cnnc2)cc1"
  UNIT OF MEASUREMENT: "%"
  VALUE REPORTED: -50.6
- COMPOUND: "O=C(CCS(=O)(=O)c1cccc2nonc12)Nc1cccc2c1CCCC2"
  UNIT OF MEASUREMENT: "%"
  VALUE REPORTED: -14
- COMPOUND: "CC(=O)c1cccc(N=C2NC(=O)C(CO)(CO)S2)c1"
  UNIT OF MEASUREMENT: "%"
  VALUE REPORTED: -12.3
- COMPOUND: "CCC1(C(=O)OC)NC(c2cccc(F)c2)C2C(=O)N(C)C(=O)C21 (stereo not drawn)"
  UNIT OF MEASUREMENT: "%"
  VALUE REPORTED: -167
- COMPOUND: "CCN(CC)c1nc(-c2cccc(OC)c2O)nc2ccccc12"
  UNIT OF MEASUREMENT: "%"
  VALUE REPORTED: -45.9
- COMPOUND: "CN(C)S(=O)(=O)c1cccc(C(=O)Nc2cccnc2)c1"
  UNIT OF MEASUREMENT: "%"
  VALUE REPORTED: -79.6
- COMPOUND: "CCc1nc2c(sc3nc(N4CCOCC4)c4c(c32)CC(C)(C)OC4)c(=O)o1"
  UNIT OF MEASUREMENT: "%"
  VALUE REPORTED: -123
- COMPOUND: "CCCn1cc(C(CC(=O)O)C(=O)O)c2ccccc21 (stereo not drawn)"
  UNIT OF MEASUREMENT: "%"
  VALUE REPORTED: -112
- COMPOUND: "COc1ccc(N2CCN(Cc3nc4ccccc4c(=O)[nH]3)CC2)cc1"
  UNIT OF MEASUREMENT: "%"
  VALUE REPORTED: -72.3
- COMPOUND: "CC(C)COC(=O)NCC12C=CC(O1)C1C(=O)N(c3ccc(Cl)cc3)C(=O)C12 (stereo not drawn)"
  UNIT OF MEASUREMENT: "%"
  VALUE REPORTED: 5.7
- COMPOUND: "COc1ccc(Nc2nnc(C)c3ccccc23)cc1C(N)=O"
  UNIT OF MEASUREMENT: "%"
  VALUE REPORTED: -91.7
